The values you see were collected from PubChem BioAssay.

Test: growth inhibition, single agents and combos, ICB984, cell-based, cisplatin or BGB combos, synergistic combos for chromothripsis tumors (AID 1671451);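 also: cells exposed for 96 hours before readout; 0% = vehicle DMSO and 100% = killing by high DMSO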
Details: ICB984 medulloblastoma cells, drug combinations, at 0.5 µM, active compounds read high
Answer each item with its documented inhibition.
Numbers only, in %.

Known results for compounds:
COMPOUND	READOUT_KIND	MEASURED
CC(C)(O)[C@H]1CC[C@@](C)(C2[C@@H](O)C[C@@]3(C)[C@@H]4C[C@H](O)C5C(C)(C)[C@@H](O)CCC56CC46CC[C@]23C)O1 (some centres undefined)	inhibition	-16.2
Nc1nc(NC2CC2)cc(-c2cccc(Cl)c2Cl)n1	inhibition	-15.4
C=C1CCC(O)CC1=CC=C1CCCC2(C)C1CCC2C(C)C=CC(C)C(C)C (centres undefined)	inhibition	-8.49
O=C1N=c2ccccc2=C1c1c(O)[nH]c2ccccc12	inhibition	-13.3
Cc1c(Br)cc(NCC(=O)N/N=C/c2cc([N+](=O)[O-])ccc2O)cc1Br	inhibition	-30.2

// each listed compound needs a value for inhibition
1. O=C(CCSc1nc2ccccc2c(=O)[nH]1)NC1CCC(c2nnc(-c3ccccc3)o2)CC1 (centres undefined)
2. NC(=O)c1cccc2[nH]c(-c3ccc(C4CCCN4)cc3F)nc12 (centres undefined)
3. COc1nc(N)nc2c1ncn2[C@@H]1O[C@H](CO)[C@@H](O)[C@H]1O
4. COc1cccc2c1C(=O)c1c(O)c3c(c(O)c1C2=O)CC(O)(C(=O)CO)CC3OC1CC(N)C(OC2CCCCO2)C(C)O1 (centres undefined)

1: -25.5; 2: -20.7; 3: -21.1; 4: -38.2

---

Assay: drug combination growth inhibition, ovarian cancer – cell-based, oncology-focused library, rucaparib conditional, profiling panel (AID 1508598)
Details: patient-derived ovarian cancer cells, CellTiter-Glo viability, 144 h; at 0.313 µM; OCI-C5x cells; without rucaparib; active compounds read low
*1 amine or outer side, *2 acyl side, *3 side chain or, on linkers, in order; H or OH if unused. Where a SMILES comes first, the peptide text is derived from it. Bridges are numbered along the chain shown (N, C = ends). Roman numbers before positions name the chains, in order. [ ]: non-standard residue; d: D form. Hexamethylenediamine = C(CCCN[*:2])CCN[*:1]; Dip = N[C@H](C(=O)O)C(c1ccccc1)c1ccccc1; Chg = N[C@H](C(=O)O)C1CCCCC1; NMeA = CN[C@@H](C)C(=O)O
Field: viability. Provide a value for each of the compounds that follow.
Give bare numbers, in %.

Examples from the recorded data:
COMPOUND	viability / %
O=C(/C=C/c1ccc2ccccc2n1)c1ccncc1	112
NC(=O)CCCSc1nc(N)nc(-c2c(Cl)cc3c4c(cccc24)COC3)n1	35.4
COc1ccc(C2=N[C@@H](c3ccc(Cl)cc3)[C@H](c3ccc(Cl)cc3)N2C(=O)N2CCNC(=O)C2)c(OC(C)C)c1	101
COc1cc([C@H]2c3cc4c(cc3[C@@H](O[C@@H]3O[C@@H]5CO[C@@H](c6cccs6)O[C@H]5[C@H](O)[C@H]3O)[C@H]3COC(=O)[C@H]23)OCO4)cc(OC)c1O	56.8

Hi team, please reply with viability for each item in this list.
1. CC1(C)C=C(CN2C/C(=C/c3ccc(F)cc3)C(=O)/C(=C/c3ccc(F)cc3)C2)C(C)(C)N1O
2. CC(=O)O[C@@]1(C(C)=O)CC[C@H]2[C@@H]3C[C@H](C)C4=CC(=O)CC[C@]4(C)[C@@H]3CC[C@@]21C

[109, 118]

# return viability for each item in the list
1. CO[C@H]1C[C@@H]2CC[C@@H](C)[C@@](O)(O2)C(=O)C(=O)N2CCCC[C@H]2C(=O)O[C@H]([C@@H](C)C[C@@H]2CC[C@@H](OCCO)[C@H](OC)C2)CC(=O)[C@H](C)/C=C(\C)[C@H](O)[C@@H](OC)C(=O)[C@H](C)C[C@H](C)/C=C/C=C/C=C/1C
2. CC1(C)O[C@@H]2C[C@H]3[C@@H]4CCC5=CC(=O)C=C[C@]5(C)[C@]4(F)[C@H](O)C[C@]3(C)[C@@]2(C(=O)CO)O1
3. CN[C@@H](C)C(=O)N[C@H](C(=O)N1CCC[C@H]1C(=O)N[C@H](C(=O)NCCCCCCNC(=O)[C@@H](NC(=O)[C@@H]1CCCN1C(=O)[C@@H](NC(=O)[C@H](C)NC)C1CCCCC1)C(c1ccccc1)c1ccccc1)C(c1ccccc1)c1ccccc1)C1CCCCC1 (I: H-[NMeA][Chg]P[Dip] / II: H-[NMeA][Chg]P[Dip]; linker I:C-II:C via Hexamethylenediamine)
4. COc1ccccc1-c1cc(Nc2cccc(CS(N)(=O)=O)c2)ncn1
5. C[C@@]12CC[C@H]3c4ccc(O)cc4C[C@@H](CCCCCCCCCS(=O)CCCC(F)(F)C(F)(F)F)[C@H]3[C@@H]1CC[C@@H]2O (stereo partly drawn)
6. COc1cc(C(=O)NC2CCN(C)CC2)ccc1Nc1ncc2c(n1)N(C1CCCC1)CC(F)(F)C(=O)N2C
7. CN(C)CCSSCCNC(=O)C1CCN(C(=O)CSc2ccc(Cl)cc2)CC1
8. CC(C)(C)C(=O)Nc1ccc2c(c1)C(=O)C(=O)c1ccccc1-2

1: 111; 2: 114; 3: 116; 4: 102; 5: 125; 6: 27.3; 7: 91.9; 8: 112
